- Procedure Details: Colchicine elimination half-life after multiple oral doses in young healthy volunteers
- Type: in vivo
- Measurement Conditions: human, plasma; multiple oral doses 0.6 mg twice daily, young healthy volunteers (mean age 25 to 28 years)
Observable: half-life

Query: What measured half-life goes with `COc1cc2c(c(OC)c1OC)-c1ccc(OC)c(=O)cc1[C@@H](NC(C)=O)CC2` ?
Result: 26.6 to 31.2 h

----------
- Procedure Details: Pharmacokinetic study in healthy adults of single vs. multiple oral doses of colchicine tablets (Example 1)
- Assay type: in vivo, human
- Measurement Conditions: human, in vivo, po, 0.6 mg, mean; multiple (b.i.d.) oral doses 0.6 mg x 10 days, Day 25, healthy adults N=13; read-out: Cmin
Observable: concentration at 25 day
Kindly report the value followed by its unit.

Query: What measured concentration at 25 day goes with `COc1cc2c(c(OC)c1OC)-c1ccc(OC)c(=O)cc1[C@@H](NC(C)=O)CC2` ?
Result: 0.907 ng/mL

----------
- Procedure Details: Pharmacokinetic study in healthy adults of single vs. multiple oral doses of colchicine tablets (Example 1);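 note: each subject received both dosing periods, single and repeated oral dosing, with a 14-day washout interval between periods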
- Format: in vivo, human
- Measurement Conditions: human, in vivo, 0.6 mg, Day 25; read-out: mean Cmin concentration
Observable: concentration at 25 day (ng/mL)
The figure you give is taken to be in ng/mL; do not add the unit.

Query: What measured concentration at 25 day goes with `COc1cc2c(c(OC)c1OC)-c1ccc(OC)c(=O)cc1[C@@H](NC(C)=O)CC2` ?
Result: 0.907
